system: MOLM14 cells; assay: Proliferation assay, spheroid-like growth, MOLM14 (MLL-AF9 rearranged); assay type: cell-based, human; conditions: Homo sapiens, MOLM-14, 192 h, 8 days, confluence as measure of spheroid size, read-out: spheroid assay_OneTime MOLM14 IC50
Measured endpoint: IC50 (nM)

Compound: CC(C)[C@H]([C@H]1C[C@@H](NC2CCOCC2)C1)N1CC2(CCN(c3ncnnc3Oc3ccc(F)cc3-c3cncnc3C3CC3)C2)C1 (single isomer, unassigned)
Number: 11

Compound: CC(C)[C@H]([C@H]1C[C@@H](N2CCCC2)C1)N1CC2(CCN(c3ncnnc3Oc3ccc(F)cc3-c3cncnc3C3CC3)C2)C1 (single isomer, unassigned)
Number: 2

Compound: CC(C)[C@H]([C@H]1C[C@@H](N2CCC3(COC3)C2)C1)N1CC2(CCN(c3ncnnc3Oc3ccc(F)cc3-c3nnccc3C3CC3)C2)C1 (single isomer, unassigned)
Number: 920

----------
tested on: MOLM14 cells; experiment: Proliferation assay, spheroid-like growth, MOLM14 (MLL-AF9 rearranged); format: cell-based, human; conditions: Homo sapiens, MOLM-14, 192 h, 8 days, confluence as measure of spheroid size, read-out: spheroid assay_OneTime MOLM14 IC50
pIC50: −log10 of the molar value.

Compound: CCOC(=O)c1sc(N[C@H]2C[C@@H](C(C(C)C)N3CC4(CCN(c5ncnnc5Oc5ccc(F)cc5-c5cncnc5C5CC5)C4)C3)C2)nc1C (single isomer, unassigned)
Comparative sign: =
pIC50: 7.77
//
Compound: CC(C)C([C@H]1C[C@@H](N2CCCCC2)C1)N1CC2(CCN(c3ncnnc3Oc3ccc(F)cc3-c3cncnc3C3CC3)C2)C1 (stereo partly shown)
Comparative sign: =
pIC50: 8.10
//
Compound: CC(C)[C@@H]([C@H]1C[C@@H](N(C)C)C1)N1CC2(CCN(c3ncnnc3Oc3ccc(F)cc3-c3nnccc3C3CC3)C2)C1 (single isomer, unassigned) [Compound 261a]
Comparative sign: =
pIC50: 7.72
//
Compound: CC(=O)N[C@H]1C[C@@H](C(C(C)C)N2CC3(CCN(c4ncnnc4Oc4ccc(F)cc4-c4cnncc4C4CC4)C3)C2)C1 (stereo partly shown)
Comparative sign: =
pIC50: 7.19
//
Compound: CC(C)[C@@H]([C@H]1C[C@@H](N2CCC3(CCO3)CC2)C1)N1CC2(CCN(c3ncnnc3Oc3ccc(F)cc3-c3cnncc3C3CC3)C2)C1 (single isomer, unassigned) [Compound 281a]
Comparative sign: =
pIC50: 8.00
//
Compound: Cc1ncc(-c2cc(F)ccc2Oc2nncnc2N2CCC3(C2)CN([C@@H](C(C)C)[C@H]2C[C@@H](N4C[C@@H]5[C@H](C4)[C@H]5NC(=O)C4CC4)C2)C3)c(C2CC2)n1
Comparative sign: >
pIC50: 8.74
//
Compound: CO[C@H]1[C@@H]2CN([C@H]3C[C@H]([C@H](C(C)C)N4CC5(CCN(c6ncnnc6Oc6ccc(F)cc6-c6nnc(C)cc6C6CC6)C5)C4)C3)C[C@@H]21
Comparative sign: =
pIC50: 6.64
//
Compound: CC(C)C([C@H]1C[C@@H](N2CCC(C#N)CC2)C1)N1CC2(CCN(c3ncnnc3Oc3ccc(F)cc3-c3cncnc3C3CC3)C2)C1 (stereo partly shown)
Comparative sign: =
pIC50: 7.26
//
Compound: CC(C)[C@H]([C@H]1C[C@@H](Nc2ccc3[nH]c(=O)[nH]c3c2)C1)N1CC2(CCN(c3ncnnc3Oc3ccc(F)cc3-c3cncnc3C3CC3)C2)C1 (single isomer, unassigned)
Comparative sign: =
pIC50: 7.05
//
Compound: CO[C@H]1[C@@H]2CN([C@H]3C[C@@H]([C@@H](C(C)C)N4CC5(CCN(c6ncnnc6Oc6ccc(F)cc6-c6cncnc6C6CC6)C5)C4)C3)C[C@@H]21 (single isomer, unassigned)
Comparative sign: =
pIC50: 8.70

----------
target: menin/MLL (terbium chelate-labeled menin, FITC-MBM1 peptide) (Homo sapiens, UniProt O00255, T541A); construct: Menin (a.a 1-610-6xhis tag); experiment: Menin/MLL homogenous time-resolved fluorescence (HTRF) assay; format: binding; details: 30 min incubation
Sequence (O00255 with tags, fused parts or gaps T541A): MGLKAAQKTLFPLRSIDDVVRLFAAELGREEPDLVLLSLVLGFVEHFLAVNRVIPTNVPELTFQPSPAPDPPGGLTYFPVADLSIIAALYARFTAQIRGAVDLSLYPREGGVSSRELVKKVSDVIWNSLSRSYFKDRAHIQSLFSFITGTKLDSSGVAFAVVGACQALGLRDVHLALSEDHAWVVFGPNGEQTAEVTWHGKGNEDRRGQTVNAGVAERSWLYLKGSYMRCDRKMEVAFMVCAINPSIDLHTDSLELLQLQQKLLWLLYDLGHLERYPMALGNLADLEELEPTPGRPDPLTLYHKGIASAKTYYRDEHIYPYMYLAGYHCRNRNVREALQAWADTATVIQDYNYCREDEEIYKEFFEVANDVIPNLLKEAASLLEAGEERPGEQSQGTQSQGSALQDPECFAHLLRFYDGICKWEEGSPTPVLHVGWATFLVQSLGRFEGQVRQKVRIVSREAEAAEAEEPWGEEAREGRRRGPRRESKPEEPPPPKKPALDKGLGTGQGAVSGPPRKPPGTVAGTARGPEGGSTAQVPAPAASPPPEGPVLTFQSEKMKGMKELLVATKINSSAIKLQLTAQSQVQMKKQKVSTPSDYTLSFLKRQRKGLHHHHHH
pIC50: −log10 of the molar value.
Overview of recorded pIC50 for various compounds

Compound: CC(=O)N1CC2(CCCN2[C@H]2C[C@@H]([C@@H](C(C)C)N3CC4(CCN(c5ncnnc5Oc5ccc(F)cc5-c5cncnc5C5CC5)C4)C3)C2)C1 (single isomer, unassigned)
pIC50: 9.40
//
Compound: CC(C)[C@@H]([C@H]1C[C@@H](N2C[C@H]3COC[C@H]3C2)C1)N1CC2(CCN(c3ncnnc3Oc3ccc(F)cc3-c3ncncc3C3CC3)C2)C1 (single isomer, unassigned)
pIC50: 10.00
//
Compound: CC(C)[C@H]([C@H]1C[C@@H](N2CC3(CCO3)C2)C1)N1CC2(CCN(c3ncnnc3Oc3ccc(F)cc3-c3cnncc3C3CC3)C2)C1 (single isomer, unassigned)
pIC50: 8.26

----------
Attribute: pIC50
system: MOLM14 cells; assay: Proliferation assay, spheroid-like growth, MOLM14 (MLL-AF9 rearranged); format: cell-based, human; conditions: Homo sapiens, MOLM-14, 192 h, 8 days, confluence as measure of spheroid size, read-out: spheroid assay_OneTime MOLM14 IC50
pIC50: −log10 of the molar value.

Molecule: Cc1ncc(-c2cc(F)ccc2Oc2nncnc2N2CCC3(C2)CN([C@@H](C(C)C)[C@H]2C[C@@H](N4CC[C@H](C(=O)N(C)C)C4)C2)C3)c(C2CC2)n1 [Compound 383]
Comparative sign: =
pIC50: 8.64

Molecule: CC(C)[C@@H]([C@H]1C[C@H](N2CC[C@](C)(O)C2)C1)N1CC2(CCN(c3ncnnc3Oc3ccc(F)cc3-c3cnncc3C3CC3)C2)C1 (single isomer, unassigned) [Compound 113]
Comparative sign: =
pIC50: 6.70

Molecule: CNC(=O)c1cc(N[C@H]2C[C@@H]([C@@H](C(C)C)N3CC4(CCN(c5ncnnc5Oc5ccc(F)cc5-c5cncnc5C5CC5)C4)C3)C2)cnn1 (single isomer, unassigned) [Compound 432]
Comparative sign: =
pIC50: 7.66

Molecule: CC(=O)N[C@H]1C[C@@H]([C@H](C(C)C)N2CC3(CCN(c4ncnnc4Oc4ccc(F)cc4-c4nccnc4C4CC4)C3)C2)C1 (single isomer, unassigned) [Compound 178]
Comparative sign: <
pIC50: 6.03

Molecule: CC(C)C([C@H]1C[C@@H](N2C[C@H]3COC[C@H]3C2)C1)N1CC2(CCN(c3ncnnc3Oc3ccc(F)cc3-c3cncc(C#N)c3C3CC3)C2)C1 (some centres unmarked) [Compound 142]
Comparative sign: =
pIC50: 8.15

----------
Reported log10 of IC50 values for the following compounds.
system: MOLM14 cells; test: Proliferation assay, spheroid-like growth, MOLM14 (MLL-AF9 rearranged); type: cell-based, human; conditions: Homo sapiens, MOLM-14, 192 h, 8 days, confluence as measure of spheroid size, read-out: spheroid assay_OneTime MOLM14 IC50
Measured endpoint: log10 of IC50 (log10 of the value in nM)

Compound: CC(C)C([C@H]1C[C@H](NCC(C)(C)O)C1)N1CC2(CCN(c3ncnnc3Oc3ccc(F)cc3-c3cncnc3C3CC3)C2)C1 (stereo partly shown)
Number: 2.11
--
Compound: CC(C)[C@@H]([C@H]1C[C@@H](NC2CC2)C1)N1CC2(CCN(c3ncnnc3Oc3ccc(F)cc3-c3nnccc3C3CC3)C2)C1 (single isomer, unassigned)
Number: 1.32
--
Compound: CNC(=O)CCN(C)[C@H]1C[C@@H]([C@@H](C(C)C)N2CC3(CCN(c4ncnnc4Oc4ccc(F)cc4-c4cncnc4C4CC4)C3)C2)C1 (single isomer, unassigned)
Number: 1.00
--
Compound: CC(C)[C@H]([C@H]1C[C@@H](N2CCC3(CCCO3)C2)C1)N1CC2(CCN(c3ncnnc3Oc3ccc(F)cc3-c3nnccc3C3CC3)C2)C1 (single isomer, unassigned)
Number: 2.41
--
Compound: CO[C@H]1CCN([C@H]2C[C@H]([C@H](C(C)C)N3CC4(CCN(c5ncnnc5Oc5ccc(F)cc5-c5cnncc5C5CC5)C4)C3)C2)C1 (single isomer, unassigned)
Number: 1.72
--
Compound: CC(C)[C@H]([C@H]1C[C@@H](N2CCC3(CC2)COC3)C1)N1CC2(CCN(c3ncnnc3Oc3ccc(F)cc3-c3cncnc3C3CC3)C2)C1 (single isomer, unassigned)
Number: 0.85
--
Compound: CC(C)[C@H]([C@H]1C[C@H](N2CC[C@H](F)C2)C1)N1CC2(CCN(c3ncnnc3Oc3ccc(F)cc3-c3cncnc3C3CC3)C2)C1 (single isomer, unassigned)
Number: 1.20
--
Compound: CNC(=O)c1cnc(N[C@H]2C[C@@H]([C@@H](C(C)C)N3CC4(CCN(c5ncnnc5Oc5ccc(F)cc5-c5cncnc5C5CC5)C4)C3)C2)s1 (single isomer, unassigned)
Number: 0.52
--
Compound: CC(C)[C@H]([C@H]1C[C@@H](NC2CC2)C1)N1CC2(CCN(c3ncnnc3Oc3ccc(F)cc3-c3cncnc3C3CC3)C2)C1 (single isomer, unassigned)
Number: 0.85
